- protocol: Half-life of Compound XIV
- Format: in vitro ADME
- conditionSummary: additional data suggest; on the order of about
reportedProperty: half-life

Req: Reported half-life, compound "Cc1cccnc1N=Cc1ccc(C#N)c(SCc2ccc(Cl)c(Cl)c2)n1" : ____
Resp: ~12 h

###

# pIC50 per entry
- testSystem: telomerase (Homo sapiens, UniProt O14746)
- Construct: placing cells, tissues, or preferably a cellular extract or other preparation containing telomerase in contact with; endogenous in cells
- Sequence (O14746 whole entry): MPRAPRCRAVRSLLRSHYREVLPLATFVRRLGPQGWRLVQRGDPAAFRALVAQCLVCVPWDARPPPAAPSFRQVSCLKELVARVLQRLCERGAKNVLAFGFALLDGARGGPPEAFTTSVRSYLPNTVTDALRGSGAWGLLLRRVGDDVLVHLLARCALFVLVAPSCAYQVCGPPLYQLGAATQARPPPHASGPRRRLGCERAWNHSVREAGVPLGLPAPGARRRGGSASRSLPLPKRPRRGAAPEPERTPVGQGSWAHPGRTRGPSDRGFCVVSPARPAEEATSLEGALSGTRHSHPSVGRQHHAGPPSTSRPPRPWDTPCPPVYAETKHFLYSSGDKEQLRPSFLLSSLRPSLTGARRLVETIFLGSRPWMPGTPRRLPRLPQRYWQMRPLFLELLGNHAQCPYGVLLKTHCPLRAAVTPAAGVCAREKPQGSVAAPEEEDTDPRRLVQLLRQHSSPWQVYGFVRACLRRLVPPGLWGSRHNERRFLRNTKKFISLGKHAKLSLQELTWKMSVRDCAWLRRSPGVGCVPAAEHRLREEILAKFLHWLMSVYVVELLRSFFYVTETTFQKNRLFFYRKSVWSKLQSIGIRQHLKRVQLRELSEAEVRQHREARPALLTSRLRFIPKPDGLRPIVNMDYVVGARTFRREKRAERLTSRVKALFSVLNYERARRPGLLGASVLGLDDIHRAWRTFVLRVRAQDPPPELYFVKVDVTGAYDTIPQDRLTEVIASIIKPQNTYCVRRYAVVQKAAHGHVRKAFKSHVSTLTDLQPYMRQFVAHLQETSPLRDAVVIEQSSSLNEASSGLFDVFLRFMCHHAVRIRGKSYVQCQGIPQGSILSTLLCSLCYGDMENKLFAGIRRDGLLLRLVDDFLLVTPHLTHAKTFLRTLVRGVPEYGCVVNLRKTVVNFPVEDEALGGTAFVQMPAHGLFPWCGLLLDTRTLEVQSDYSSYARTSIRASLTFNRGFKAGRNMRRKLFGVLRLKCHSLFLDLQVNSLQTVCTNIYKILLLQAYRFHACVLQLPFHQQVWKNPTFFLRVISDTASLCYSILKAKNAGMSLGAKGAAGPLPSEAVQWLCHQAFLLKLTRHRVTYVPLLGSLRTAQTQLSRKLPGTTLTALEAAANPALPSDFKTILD
- Sequence (O60832 whole entry partner): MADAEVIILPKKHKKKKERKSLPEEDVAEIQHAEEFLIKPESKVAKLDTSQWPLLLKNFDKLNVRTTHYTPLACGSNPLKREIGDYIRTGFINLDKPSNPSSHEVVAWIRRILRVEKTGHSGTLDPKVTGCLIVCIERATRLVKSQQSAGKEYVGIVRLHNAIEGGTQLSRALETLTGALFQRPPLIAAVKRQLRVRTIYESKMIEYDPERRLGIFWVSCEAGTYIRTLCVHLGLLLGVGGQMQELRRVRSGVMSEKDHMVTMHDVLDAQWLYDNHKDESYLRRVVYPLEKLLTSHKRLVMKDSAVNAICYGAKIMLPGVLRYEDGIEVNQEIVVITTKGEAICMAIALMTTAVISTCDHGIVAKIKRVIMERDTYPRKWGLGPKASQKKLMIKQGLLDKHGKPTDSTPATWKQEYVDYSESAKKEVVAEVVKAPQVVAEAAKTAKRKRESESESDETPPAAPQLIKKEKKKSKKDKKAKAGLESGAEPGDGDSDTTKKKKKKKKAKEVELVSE
- Sequence (Q9NPE3 whole entry partner): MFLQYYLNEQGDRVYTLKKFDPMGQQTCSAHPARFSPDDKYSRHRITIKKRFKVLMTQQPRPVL
- Sequence (Q9NX24 whole entry partner): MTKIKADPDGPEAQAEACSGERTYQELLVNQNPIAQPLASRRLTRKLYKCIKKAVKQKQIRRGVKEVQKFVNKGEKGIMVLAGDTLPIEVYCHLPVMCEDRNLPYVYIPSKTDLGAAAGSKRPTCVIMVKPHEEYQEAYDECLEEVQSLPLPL
- Sequence (Q9NY12 whole entry partner): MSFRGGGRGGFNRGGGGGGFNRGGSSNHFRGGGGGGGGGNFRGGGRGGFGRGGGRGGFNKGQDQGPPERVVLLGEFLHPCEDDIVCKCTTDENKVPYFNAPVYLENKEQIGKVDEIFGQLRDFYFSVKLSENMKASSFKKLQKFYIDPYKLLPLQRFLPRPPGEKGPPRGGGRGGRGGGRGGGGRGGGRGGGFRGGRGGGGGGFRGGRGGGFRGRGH
- protocol: Inhibition of telomerase activity (IC50)
- Assay type: biochemical
- conditionSummary: Table 3; only approximate values
Interpret pIC50 as the negative base-10 log of the concentration measured in mol/L.

Req: Reported pIC50, molecule N#Cc1ccc(C=Nc2ccc3c(c2)C(=O)N(Cc2ccccc2)C3=O)nc1SCc1ccc(Cl)c(Cl)c1 [IX] : ____
Resp: 5.10
